test: growth of efflux-deficient E. coli DRC39 – strain DRC39, OD650, 24 h, E. coli filamentation inducers, primary screen (AID 1178);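 note: growth measured as culture turbidity by optical density at 650 nm; test concentration not given here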
condition-parameters: E. coli DRC39 acrAB, higher = more signal, called active from +8 up or from −8 down
measured-attribute: z-score
The reply should be a number, written without any unit.

Req: Param item = CC(C)=CCCC=C(C)C(O)C1C=CC2C(=O)N(c3ccccc3)C(=O)C2N1Nc1ccc(C#N)cc1 (configuration not stated) ; retrieve measured z-score.
Resp: -0.0959

Req: What do you have for C=CCN1Cc2ccccc2[C@H]2OC(c3ccc(OCCCO)cc3)=N[C@@]2(CCS(=O)(=O)c2ccccc2)C1=O ?
Resp: -0.135

Req: What do you have for CCN(CC)c1ccc(N2CC=CC34O[C@@H]5C=CCCOC(=O)C5[C@H]3C(=O)N(C(C)CO)[C@@H]4C2=O)cc1 (some centres not stated) ?
Resp: -0.491

Req: What do you have for C=CCC(OC(C)=O)[C@@H]1[C@@H](N(Cc2ccc(-c3ccccc3)cc2)C(=O)c2cccc3ccccc23)c2cc(OCCCO)ccc2N1C(=O)Cc1ccc(OC)cc1 (some centres not stated) ?
Resp: -0.0251

Req: What do you have for COc1cc(CO)cc(I)c1O[C@H]1C=C(C(=O)NCCO)C[C@@H](NC2CCCCCC2)[C@@H]1O ?
Resp: 0.901

Req: What do you have for COc1ccc([Si](C)(C)[C@@H]2[C@@H](CC(=O)N(CCO)Cc3ccccc3)O[C@]3(C(=O)N(Cc4ccc(N5C(=O)c6cccc7cccc5c67)cc4)c4ccccc43)[C@H]2C)cc1 ?
Resp: 0.302

Req: What do you have for COC(=O)[C@@]1(Cc2ccc(OC)cc2)[C@H]2c3cc(C(=O)N4CCCC4)n(Cc4ccc(Cl)c(C(F)(F)F)c4)c3C[C@H]2CN1C(=O)c1ccccc1 ?
Resp: -0.88
